System: human APOE RNA
EXPERIMENTAL PROTOCOL: Activity in APOE C57BL/6NTac-Apoeem7250 knock-in mice, single ICV bolus, 8 weeks (Example 11)
Format: in vivo
EXPERIMENTAL CONDITIONS: cortex; single ICV bolus 300 μg; 8 weeks post treatment; normalized to mouse Ppia
Strand notation (5' to 3'): a small letter for the sugar, then the base; units joined by * are phosphorothioate-linked, units joined directly phosphodiester-linked; [ ] holds rarer units or linkages, { } end groups; capitals alone tell only the bases. [ms] = mesyl phosphoramidate linkage; e = 2'-O-(2-methoxyethyl) (MOE); k = constrained ethyl (cEt); [5mC] = 5-methylcytosine; d = 2'-deoxy (DNA)
RESULT TYPE: APOE RNA (% control) Cortex

Which APOE RNA (% control) Cortex is reported for this substance? 1785598: modified oligonucleotide complementary to human APOE RNA (k[5mC]*kT*kT*dG[ms]dG[ms]dT[ms]dG[ms]dA[ms]dA[ms]dT*d[5mC]*dT*dT*dT*dA*dT[ms]kT*kA*dA[ms]kA; antisense) [compound 1785598] 23 % control

Quick one: 1747050 (k[5mC]*kT*kT*dG[ms]dG[ms]kT*dG[ms]dA[ms]dA[ms]dT*d[5mC]*dT*dT*dT*dA[ms]dT*kT*dA[ms]dA[ms]kA; antisense) [Compound 1747050] 36 % control

Quick one: 1746809 (k[5mC]*dT[ms]kT*dG[ms]kG*dT[ms]dG[ms]dA[ms]dA[ms]dT*d[5mC]*dT*dT*dT*dA[ms]dT*dT[ms]kA*kA*kA; antisense) [Compound 1746809] 47 % control

Next:
Which APOE RNA (% control) Cortex is reported for this substance? 1652899: 6-10-4 MOE gapmer TGGTGAATCTTTATTAAACT, linkages sooooossssssssssoss (antisense eT*eGeGeTeGeAdA*dT*d[5mC]*dT*dT*dT*dA*dT*dT*dA*eAeA*e[5mC]*eT) [compound 1652899] 57 % control

----------
Test system: human APOE RNA
EXPERIMENTAL PROTOCOL: Potency (dose response, ED50) in APOE C57BL/6NTac-Apoeem7250 knock-in mice, 8 weeks (Example 15)
Format: in vivo
EXPERIMENTAL CONDITIONS: spinal cord, ICV dose 100 μg
Strand notation (5' to 3'): a small letter for the sugar, then the base; units joined by * are phosphorothioate-linked, units joined directly phosphodiester-linked; [ ] holds rarer units or linkages, { } end groups; capitals alone tell only the bases. [ms] = mesyl phosphoramidate linkage; e = 2'-O-(2-methoxyethyl) (MOE); k = constrained ethyl (cEt); [5mC] = 5-methylcytosine; d = 2'-deoxy (DNA)
RESULT TYPE: APOE RNA (% control) Spinal Cord
Please respond with the number in % control and leave the unit unwritten.

// worked examples, APOE RNA (% control) Spinal Cord included
Which APOE RNA (% control) Spinal Cord is reported for this substance? TezTeoGeoGksTdsGdzAdzAdzTds^mCdsTdsTdsTdsAdzTksTksAesAesAes^mCe (antisense eT[ms]eTeGkG*dT*dG[ms]dA[ms]dA[ms]dT*d[5mC]*dT*dT*dT*dA[ms]kT*kT*eA*eA*eA*e[5mC]) [Compound No. 1809814] 45

Quick one: Aes^mCeoTeoTesGesGksTdsGdzAdzAdzTds^mCdsTdsTdsTdsAdzTksTksAesAe (eA*e[5mC]eTeT*eG*kG*dT*dG[ms]dA[ms]dA[ms]dT*d[5mC]*dT*dT*dT*dA[ms]kT*kT*eA*eA) [Compound No. 1757576] 13

Quick one: 1785599: modified oligonucleotide complementary to human APOE RNA (k[5mC]*kT*kT*dG[ms]dG[ms]dT[ms]dG[ms]dA[ms]dA[ms]dT[ms]d[5mC]*dT*dT*dT*dA*dT*kT*kA*dA[ms]kA; antisense) [compound 1785599] 16

Quick one: Aks^mCeoTeoTesGesGksTdsGdzAdzAdzTds^mCdsTdsTdsTdsAdzTksTksAesAe (kA*e[5mC]eTeT*eG*kG*dT*dG[ms]dA[ms]dA[ms]dT*d[5mC]*dT*dT*dT*dA[ms]kT*kT*eA*eA) [Compound No. 1809635] 13

Continue with the substance presented below.
Which APOE RNA (% control) Spinal Cord is reported for this substance? ^mCksTksTksGdzGdzTdzGdzAdzAdzTds^mCdsTdsTdsTdsAdsTdsTksAksAdzAk (antisense k[5mC]*kT*kT*dG[ms]dG[ms]dT[ms]dG[ms]dA[ms]dA[ms]dT*d[5mC]*dT*dT*dT*dA*dT*kT*kA*dA[ms]kA) [Compound No. 1785602] 26

----------
Known APOE RNA (% UTC) 8,000 nM of a selection of substances
System: human APOE RNA
EXPERIMENTAL PROTOCOL: Dose-dependent inhibition of human APOE RNA in HepG2 cells, electroporation, 50,000 cells per well, RT-PCR normalized to GAPDH (Example 4, Tables 8-10)
Format: cell-based
EXPERIMENTAL CONDITIONS: HepG2 cells, electroporation, 24-hour treatment, 8,000 nM, Table 8
Strand notation (5' to 3'): a small letter for the sugar, then the base; units joined by * are phosphorothioate-linked, units joined directly phosphodiester-linked; [ ] holds rarer units or linkages, { } end groups; capitals alone tell only the bases. [ms] = mesyl phosphoramidate linkage; e = 2'-O-(2-methoxyethyl) (MOE); k = constrained ethyl (cEt); [5mC] = 5-methylcytosine; d = 2'-deoxy (DNA)
Hey, just the number and the unit after it is fine.

Notebook entry, human APOE RNA assay: APOE RNA (% UTC) 8,000 nM of ^mCksTksTksGdzGdzTdzGdzAdzAdzTds^mCdsTdsTdsTdsAdsTdsTksAksAdzAk (antisense k[5mC]*kT*kT*dG[ms]dG[ms]dT[ms]dG[ms]dA[ms]dA[ms]dT*d[5mC]*dT*dT*dT*dA*dT*kT*kA*dA[ms]kA) [Compound No. 1785602] = ? 8 % UTC

Continue with the substance presented below.
Notebook entry, human APOE RNA assay: APOE RNA (% UTC) 8,000 nM of 1778125: modified oligonucleotide complementary to human APOE RNA (eA*e[5mC]eTeTeGeG*dT*dG[ms]dA[ms]dA*dT*d[5mC]*dT*dT*dT*dA[ms]kTkT*eA*eA; antisense) [compound 1778125] = ? 5 % UTC

----------
Test system: human APOE RNA
EXPERIMENTAL PROTOCOL: Dose-dependent reduction of human APOE RNA in HepG2 cells, electroporation, 20,000 cells per well, normalized to PPIA (Example 4, Table 11)
Type: cell-based
EXPERIMENTAL CONDITIONS: HepG2 cells, 20,000 cells per well, approximately 24 hours, PPIA-normalized, 82 nM
Strand notation (5' to 3'): a small letter for the sugar, then the base; units joined by * are phosphorothioate-linked, units joined directly phosphodiester-linked; [ ] holds rarer units or linkages, { } end groups; capitals alone tell only the bases. [ms] = mesyl phosphoramidate linkage; e = 2'-O-(2-methoxyethyl) (MOE); k = constrained ethyl (cEt); [5mC] = 5-methylcytosine; d = 2'-deoxy (DNA)
Known APOE RNA (% UTC) 82 nM of a selection of substances
Please respond with the number in % UTC and leave the unit unwritten.

Notebook entry, human APOE RNA assay: APOE RNA (% UTC) 82 nM of Aes^mCeoTeoTesGesGksTdsGdzAdzAdzTds^mCdsTdsTdsTdsAdzTksTksAesAe (eA*e[5mC]eTeT*eG*kG*dT*dG[ms]dA[ms]dA[ms]dT*d[5mC]*dT*dT*dT*dA[ms]kT*kT*eA*eA) [Compound No. 1757576] = ? 56

Quick one: TezTeoGeoGksTdsGdzAdzAdzTds^mCdsTdsTdsTdsAdzTksTksAesAesAes^mCe (antisense eT[ms]eTeGkG*dT*dG[ms]dA[ms]dA[ms]dT*d[5mC]*dT*dT*dT*dA[ms]kT*kT*eA*eA*eA*e[5mC]) [Compound No. 1809814] 88

Quick one: Aks^mCeoTeoTesGesGksTdsGdzAdzAdzTds^mCdsTdsTdsTdsAdzTksTksAesAe (kA*e[5mC]eTeT*eG*kG*dT*dG[ms]dA[ms]dA[ms]dT*d[5mC]*dT*dT*dT*dA[ms]kT*kT*eA*eA) [Compound No. 1809635] 66

Continue with the substance presented below.
Notebook entry, human APOE RNA assay: APOE RNA (% UTC) 82 nM of ^mCksTksTksGdzGdzTdzGdzAdzAdzTds^mCdsTdsTdsTdsAdsTdsTksAksAdzAk (antisense k[5mC]*kT*kT*dG[ms]dG[ms]dT[ms]dG[ms]dA[ms]dA[ms]dT*d[5mC]*dT*dT*dT*dA*dT*kT*kA*dA[ms]kA) [Compound No. 1785602] = ? 62
